Target: T1, RecE564 H609A (Escherichia coli K12, UniProt P15032 564-866, H609A)
T1 sequence: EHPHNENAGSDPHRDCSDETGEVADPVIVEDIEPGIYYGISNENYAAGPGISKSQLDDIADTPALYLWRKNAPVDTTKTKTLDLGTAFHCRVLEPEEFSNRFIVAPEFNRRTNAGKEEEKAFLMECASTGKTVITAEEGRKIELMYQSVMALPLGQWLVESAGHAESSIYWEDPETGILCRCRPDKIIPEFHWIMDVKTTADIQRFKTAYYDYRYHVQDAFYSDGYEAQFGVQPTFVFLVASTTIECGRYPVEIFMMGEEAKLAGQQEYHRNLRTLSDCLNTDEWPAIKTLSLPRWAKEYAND
Test: fluorescence anisotropy
result-type: Kd (nM)
Give just the numeric value; nM need not be written.

Supply recorded Kd for F25 (dsDNA) DNA 1: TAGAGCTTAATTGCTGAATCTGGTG DNA 2: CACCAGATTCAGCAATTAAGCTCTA here.
50
